System: herpes simplex virus 2 (HSV-2; strain MS)
Assay: Plaque reduction test for herpes simplex virus 2
Assay type: cell-based, Herpes Simplex Type 2 virus
Conditions: Human alphaherpesvirus 2, MRC5, MS strain in MRC-5 cells; each figure is the value obtained in a single test; read-out: IC₅₀ Herpes Simplex Type 2 virus MS strain in MRC-5 cells
endpoint label: IC50

Nc1nc2c(ncn2OCCCO)c(=O)[nH]1 [Example 1, 9-(3-Hydroxyprop-1-oxy)guanine] :: 0.1 µg/mL
Nc1nc2c(ncn2OCC(CO)CO)c(=O)[nH]1 :: 1.5 µg/mL
Nc1nc2c(ncn2OCCCOC(=O)c2ccccc2)c(=O)[nH]1 :: 2.1 µg/mL

Take each entry in turn and give its IC50.
1. CC(=O)OCCCOn1cnc2c(=O)[nH]c(N)nc21
2. Nc1nc2c(ncn2OCC(O)CO)c(=O)[nH]1 (stereo not drawn) [Example 6, 9-(2,3-Dihydroxyprop-1-oxy)guanine]

1.1 µg/mL
0.7 µg/mL

# lookup: IC50 of CCOc1nc(N)nc2c1ncn2OCCCO
67 µg/mL

----------
Would you kindly list IC50 for each of these molecules?
Test system: herpes simplex virus 1, strain SC16
Assay: CPE inhibition test (replicating cells) for herpes simplex virus 1
Type: cell-based
Conditions: Human alphaherpesvirus 1, SC16, MRC5, SC16 strain in MRC-5 cells; each figure is the value obtained in a single test; read-out: IC₅₀ Herpes Simplex Type 1 virus SC16 strain in MRC-5 cells
Numbers only, in µg/mL.

Nc1ncc2ncn(OCC(O)CO)c2n1 (stereo not shown) [Example 7] :: 100
CCOc1nc(N)nc2c1ncn2OCCCO [Example 4] :: 100
Nc1nc2c(ncn2OCC(O)CO)c(=O)[nH]1 (stereo not shown) [Example 6, 9-(2,3-Dihydroxyprop-1-oxy)guanine] :: 1.9
Nc1nc2c(ncn2OC(CO)CCO)c(=O)[nH]1 (stereo not shown) [Example 8, 9-(1,4-Dihydroxybut-2-oxy)guanine] :: 11
CCCCCC(=O)OCCCOn1cnc2c(=O)[nH]c(N)nc21 [Example 11, 9-(3-Hexanoyloxyprop-1-oxy)guanine] :: 0.1

Please go through the list and note IC50 for each molecule.
1. Nc1nc2c(ncn2OCC(CO)CO)c(=O)[nH]1 [Example 5]
2. CC(=O)OCCCOn1cnc2c(=O)[nH]c(N)nc21 [Example 2, 9-(3-Acetoxyprop-1-oxy)guanine]
3. Nc1nc2c(ncn2OCCCOC(=O)c2ccccc2)c(=O)[nH]1 [Example 3, 9-(3-Benzoyloxyprop-1-oxy)guanine]
4. Nc1nc2c(ncn2O[C@H](CO)CCO)c(=O)[nH]1 [Example 15, (S)-9-(1,4-Dihydroxybut-2-oxy)guanine]
5. Nc1nc2c(ncn2O[C@@H](CO)CCO)c(=O)[nH]1 [Example 14, (R)-9-(1,4-Dihydroxybut-2-oxy)guanine]

1. 1.8
2. 0.4
3. 1.2
4. 7.4
5. 100

----------
Test system: herpes simplex virus 1 (HSV-1; strain HFEM)
Assay: Plaque reduction test for herpes simplex virus 1
Format: cell-based
Conditions: Human alphaherpesvirus 1, Vero, HFEM strain in Vero cells; each figure is the value obtained in a single test; read-out: IC₅₀ Herpes Simplex Type 1 virus HFEM strain in Vero cells
Exercise: state measured IC50 for each of the molecules provided.
Numbers only, in mg/L.

CC(=O)OCCCOn1cnc2c(=O)[nH]c(N)nc21 :: 4.3

Give measured IC50 for every item shown.
1. Nc1nc2c(ncn2OCC(CO)CO)c(=O)[nH]1
2. Nc1nc2c(ncn2OCCCOC(=O)c2ccccc2)c(=O)[nH]1

1: 1.5; 2: 2.8

The measurements presented in this section are drawn from patent EP0242482B1.
